TESTED_ON: human MC4R receptor (human, UniProt P32245 1-332)
Sequence (P32245 whole entry): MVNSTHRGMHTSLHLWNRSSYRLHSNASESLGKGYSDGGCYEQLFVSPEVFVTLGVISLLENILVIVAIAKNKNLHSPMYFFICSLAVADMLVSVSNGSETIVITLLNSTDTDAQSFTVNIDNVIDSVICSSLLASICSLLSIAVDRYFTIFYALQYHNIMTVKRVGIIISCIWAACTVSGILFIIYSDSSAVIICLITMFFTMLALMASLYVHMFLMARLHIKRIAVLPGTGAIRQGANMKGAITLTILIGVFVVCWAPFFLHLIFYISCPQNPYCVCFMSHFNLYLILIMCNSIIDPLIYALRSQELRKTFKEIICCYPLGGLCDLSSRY
EXPERIMENTAL_PROTOCOL: cell-based or functional assay
Positions of bridges follow the written chain, without caps; N, C: chain ends. Non-standard residues stand in square brackets, D forms with d. dPhe(4-Br) = N[C@H](Cc1ccc(Br)cc1)C(=O)O; dTic = O=C(O)[C@H]1Cc2ccccc2CN1; Nle = CCCC[C@H](N)C(=O)O
Listed binders paired with reported cAMP EC50

{"columns": ["BINDER", "cAMP EC50 [nM]"],
 "data": [
  ["Ac-RC[dA]R[dW]RWC-NH2 (disulfide 2-8; SMILES CC(=O)N[C@@H](CCCNC(=N)N)C(=O)N[C@H]1CSSC[C@@H](C(N)=O)NC(=O)[C@H](Cc2c[nH]c3ccccc23)NC(=O)[C@H](CCCNC(=N)N)NC(=O)[C@@H](Cc2c[nH]c3ccccc23)NC(=O)[C@H](CCCNC(=N)N)NC(=O)[C@@H](C)NC1=O) [CTX-1274]", 1400],
  ["Ac-RC[dA]R[dPhe(4-Br)]R[dW]C-NH2 (disulfide 2-8) [CTX-1214]", 2.6],
  ["Ac-R[Nle]CR[dPhe(4-Br)]RWC-NH2 (disulfide 3-8; SMILES CCCC[C@H](NC(=O)[C@H](CCCNC(=N)N)NC(C)=O)C(=O)N[C@H]1CSSC[C@@H](C(N)=O)NC(=O)[C@H](Cc2c[nH]c3ccccc23)NC(=O)[C@H](CCCNC(=N)N)NC(=O)[C@@H](Cc2ccc(Br)cc2)NC(=O)[C@H](CCCNC(=N)N)NC1=O) [CTX-1230]", 1.4],
  ["Ac-RC[dA]R[dTic]R[dW]C-NH2 (disulfide 2-8) [CTX-1273]", 7430]
]}
